- run-description: Cytotoxicity against human HuH7 cells assessed as decrease in cell viability

- smiles-representation: "COc1cnc(O[C@@H]2C[C@@H](C(=O)N[C@]3(C(=O)NS(=O)(=O)C4CC4)C[C@H]3C3CC3)N(C(=O)[C@@H](NC(=O)O[C@H](C)C(F)(F)F)C3CCCCC3)C2)c2cc(Cl)ccc12"
  CC50: "8 to 14 µM"

====

- run-description: Clearance in Beagle dog plasma at 1 mg/kg, iv administered as 5 mins infusion measured up to 24 hrs post dose by LC/MS/MS analysis
- Format: ADME, organism-based, Canis lupus familiaris
assay-metric: clearance

- smiles-representation: "C=C[C@@H]1C[C@]1(NC(=O)[C@@H]1C[C@@H](Oc2ncc(OC)c3ccc(Cl)cc23)CN1C(=O)[C@@H](NC(=O)OC(C)(C)C)C(C)(C)C)C(=O)NS(=O)(=O)C1CC1"
  assay-metric: "clearance"
  result: "18.7 mL/min/kg"
- smiles-representation: "COc1cnc(O[C@@H]2C[C@@H](C(=O)N[C@]3(C(=O)NS(=O)(=O)C4CC4)C[C@H]3C3CC3)N(C(=O)[C@@H](NC(=O)O[C@H](C)C(F)(F)F)C3CCCC3)C2)c2cc(Cl)ccc12"
  assay-metric: "clearance"
  result: "6.2 mL/min/kg"
- smiles-representation: "COc1cnc(O[C@@H]2C[C@@H](C(=O)N[C@]3(C(=O)NS(=O)(=O)C4CC4)C[C@H]3C3CC3)N(C(=O)[C@@H](NC(=O)O[C@H](C)C(F)(F)F)C3CCCCC3)C2)c2cc(Cl)ccc12"
  assay-metric: "clearance"
  result: "4.3 mL/min/kg"
- smiles-representation: "COc1cnc(O[C@@H]2C[C@@H](C(=O)N[C@]3(C(=O)NS(=O)(=O)C4CC4)C[C@H]3C3CC3)N(C(=O)[C@@H](NC(=O)O[C@H](C)C(F)(F)F)C(C)(C)C)C2)c2cc(Cl)ccc12"
  assay-metric: "clearance"
  result: "8.5 mL/min/kg"
